# assayed-system: human a-thrombin (Homo sapiens)
# Construct: human a-thrombin
# assay-procedure: In vitro assay for determining proteinase inhibition (thrombin Ki)
# Type: biochemical
# condition-details: Table 5; 25° C., pH 7.4; read-out: Ki(thr)
# Protocol: In vitro assay for determining proteinase inhibition Assays of human a-thrombin and human trypsin were performed at 25° C. in 0.05M TRIS buffer pH 7.4, 0.15M NaCl, 0.1% PEG. Trypsin assays also contained 1 mM CaCl2. In assays wherein rates of hydrolysis of a p-nitroanilide (pna) substrate were determined, a Thermomax 96-well plate reader was used to measure (at 405 nm) the time dependent appearance of p-nitroaniline. […]
property-name: Ki

Which Ki reading was recorded for the compound CCc1cc(S(=O)(=O)N2CCN(C(=N)N)CC2)ccc1OCC1CCCCC1 ? 0.1 to 1 µM

What does the data say about its Ki? Entry: N=C(N)N1CCN(S(=O)(=O)c2ccc(OCc3ccccc3)cc2)CC1 1 to 10 µM

====

# assayed-system: human a-thrombin (Homo sapiens, UniProt P00734)
# Construct: human a-thrombin
# assay-procedure: In vitro assay for determining proteinase inhibition (thrombin Ki)
# Type: biochemical
# condition-details: Table 6; 25° C., pH 7.4; read-out: Ki(thr)
pKi: −log10 of the molar value. Counter-ions that a name gives are not always drawn.
property-name: pKi

A selection of reference data follows.
molecule: N=C(N)c1ccc(Cc2ccc(OCC3CCCCC3)cc2)cc1 [hydrochloride]
pKi: 6.77
//
molecule: Cc1cc(Cc2ccc(C(=N)N)cc2)ccc1OC(C(C)C)C1CCCCC1 (centres unmarked)
pKi: 7.70

[A] CCc1cc(Cc2ccc(C(=N)N)cc2)ccc1OC(C(C)C)C1CCCCC1 (centres unmarked)
[B] N=C(N)c1ccc(Cc2ccc(OCc3ccccc3)cc2)cc1 [hydrochloride]
Hey, between A and B which has a smaller measured pKi? Give the label under which the chosen entry appears. B

[a] CCc1cc(Cc2ccc(C(=N)N)cc2)ccc1OCC1CCCCC1
[b] CCCc1cc(Cc2ccc(C(=N)N)cc2)ccc1OC(C(C)C)C1CCCCC1 (centres unmarked)
Param pair: a , b . Output: the one whose pKi is numerically greater. // caller expects the label of the chosen entry a
(a: 7.11, b: 6.55)

[P] CCCc1cc(Cc2ccc(C(=N)N)cc2)ccc1OCC1CCCCC1
[Q] Cc1cc(Cc2ccc(C(=N)N)cc2)ccc1OCC1CCCCC1
Returns: the label, P or Q , whose recorded pKi is the lower number. Let me know the label of the one you choose. P

====

# assayed-system: human a-thrombin (Homo sapiens)
# Construct: human a-thrombin
# assay-procedure: In vitro assay for determining proteinase inhibition (thrombin Ki)
# Assay type: biochemical
# condition-details: Table 4; 25° C., pH 7.4; read-out: Ki (thr)
pKi: −log10 of the molar value.
property-name: pKi

Here are 3 compounds together with their reported answers.
compound: CCCc1cc(CNc2ccncc2)ccc1OCCC(C)C
assayed-system: human a-thrombin (Homo sapiens)
pKi: 5.00 to 6.00

compound: CCCc1cc(CNc2ccncc2)cc(CN2CCCCC2)c1OCC1CCCCC1
assayed-system: human a-thrombin (Homo sapiens)
pKi: 5.00 to 6.00

compound: CNC(=O)c1cc(CNc2ccncc2)ccc1OCC1CCCCC1
assayed-system: human a-thrombin (Homo sapiens)
pKi: < 5.00

What value of pKi on human a-thrombin (Homo sapiens) does CCCc1cc(CNc2ccncc2C)ccc1OCC1CCCCC1 have? 5.00 to 6.00

State its pKi on human a-thrombin (Homo sapiens): CCCc1cc(CNc2ccncc2)ccc1OCC1CC2C=CC1C2 (stereo not shown) 6.00 to 7.00

Short answer please: pKi, human a-thrombin (Homo sapiens), entry CCCc1cc(CN(CC)c2ccncc2)ccc1OCC1CCCCC1 < 5.00

Missing value: pKi, human a-thrombin (Homo sapiens), entry CNCc1cc(CNc2ccncc2)ccc1OCC1CCCCC1 . Fill in? 5.00 to 6.00

Short answer please: pKi, human a-thrombin (Homo sapiens), entry NCc1cc(CNc2ccncc2)ccc1OCC1CCCCC1 < 5.00

API: value(readout=pKi, system=human a-thrombin (Homo sapiens)) for record CC(C)(C)OCCc1cc(CNc2ccncc2)ccc1OCC1CCCCC1 < 5.00

Param readout = pKi; param system = human a-thrombin (Homo sapiens); param query = OCc1cc(CNc2ccncc2)ccc1OCC1CCCCC1 ; response: value < 5.00
